I'd appreciate it if you could supply pH Range where Protein is >80% detected as Soluble and A650 <1 OD: Other values for the items below.
# assay info: pH solubility
# Format: physicochemical
# study conditions: other pH
No unit in the answer, please; the number alone is enough.

Lookup: Specify measured pH Range where Protein is >80% detected as Soluble and A650 <1 OD: Other for SEQID-00287: nutritive polypeptide (protein, listed as Saccharomyces cerevisiae, source: /note="strain ATCC 204508 / S288c", nutritive polypeptide) LVLGALLDTSHKFRNLDKDLCEKCAKCISMIGVLDVTKHEFKRTTYSENEVYDLNDSVQTIKFLIWVINDILV .
Found: 2.6

Lookup: Dear colleague, please send me the reported pH Range where Protein is >80% detected as Soluble and A650 <1 OD: Other for SEQID-00265: nutritive polypeptide (protein, listed as Bos taurus) SEGDRLRVELAEKANKLQNELDNVSTLLEEAEKKGIKFAKDAAGLESQLQDTQELLQEETRQKLNLSSRIRQLEEERSSLQEQQEEEEEARRSLEKQLQALQAQLTDTKKKVDDDLGTIENLEEAKKKLLKDVEVLSQRLEEKALAYDKLEKTKTRLQQELDDLLVDLDHQRQIVSNLEKKQKKFDQLLAEEKNISARYAEERDRAEAEAREKETKALSLARALEEALEAREEAERQNKQLRADMEDLMSSKDDVGKNVHELEKSKRALE when you can.
Found: 3

Sourced from patent US20160228506A1
